# System: Canis familiaris
# test_protocol: Diuretic activity in mongrel dog assessed as excretion of chloride ion at 5 mg/kg, iv measured after 15 and 45 mins (reference value: 7 to 13 uequiv/min)
# Type: functional, Canis lupus familiaris, Urine
property_label: Activity (uEq/min)
Give bare numbers, in uEq/min.

These recorded examples may help you get a feel for the data.
* O=C(O)COc1ccc(/C=C2\CCCCC2=O)c(Cl)c1Cl | 1340
* CC(=O)/C(C)=C/c1ccc(OCC(=O)O)c(Cl)c1Cl | 1140
* CC(=O)/C=C/c1ccc(OCC(=O)O)c(Cl)c1Cl | 1078
* C/C(C=O)=C\c1ccc(OCC(=O)O)c(Cl)c1Cl | 130

Okay, now this compound:
Inquiry: Fill blank: measured Activity of the compound COc1cc(/C=C/C(C)=O)ccc1OCC(=O)O is ____.
Reply text: 27
